Where do the numbers come from? From PubChem BioAssay AID2060603.

Entries and their viability, T/C
Test system: 422866-222-R5-J1-PDC spheroid viability
experiment: Anticancer human tumor 422866-222-R5-J1-PDC patient-derived pancreatic adenocarcinoma cell line growth inhibition [CLK]
conditions: second compound 0.1 µM; first compound 0.000949 µM; stronger effect = lower value; spheroids with HUVEC and MSC
readout type: viability, T/C (%)

INSERT INTO results (compound, readout_type, measured_result) VALUES
  ('C=CC(=O)Nc1cc(Nc2nccc(-c3cn(C)c4ccccc34)n2)c(OC)cc1N(C)CCN(C)C + CN1CCN(c2cc(C(=O)Nc3cc4cc(-c5cnn(C)c5)ccc4cn3)ccn2)CC1', 'viability, T/C', 133),
  ('CC(C)CC(NC(=O)C(Cc1ccccc1)NC(=O)c1cnccn1)B(O)O (centres undefined) + CNC(=O)c1ccc(Nc2nc(OC3CCCC3)c3c(-c4ccc5nc(C)oc5c4)c[nH]c3n2)c(OC)c1', 'viability, T/C', 115),
  ('C=CC(=O)Nc1cc(Nc2nccc(-c3cn(C)c4ccccc34)n2)c(OC)cc1N(C)CCN(C)C + CNC(=O)c1ccc(Nc2nc(OC3CCCC3)c3c(-c4ccc5nc(C)oc5c4)c[nH]c3n2)c(OC)c1', 'viability, T/C', 103),
  ('CC(C)CC(NC(=O)C(Cc1ccccc1)NC(=O)c1cnccn1)B(O)O (centres undefined) + CN1CCN(c2cc(C(=O)Nc3cc4cc(-c5cnn(C)c5)ccc4cn3)ccn2)CC1', 'viability, T/C', 115);

###

System: 422866-222-R5-J1-PDC spheroid viability
experiment: Anticancer human tumor 422866-222-R5-J1-PDC cell line growth inhibition [CLK]; active = viability on the fitted dose curve at most 10% of control; inactive = the rest;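 further: spheroids exposed to agents for seven days before readout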
conditions: second compound 1 µM; first compound 3.16 µM; spheroids with HUVEC and MSC
Outcomes: active, inactive

INSERT INTO measurements (molecule, qualitative_label) VALUES
  ('O=c1[nH]cc(F)c(=O)[nH]1 + CNC(=O)c1ccc(Nc2nc(OC3CCCC3)c3c(-c4ccc5nc(C)oc5c4)c[nH]c3n2)c(OC)c1', 'inactive'),
  ('CC1COCCN1c1cc(C2(S(C)(=N)=O)CC2)nc(-c2ccnc3[nH]ccc23)n1 (stereo not given) + CNC(=O)c1ccc(Nc2nc(OC3CCCC3)c3c(-c4ccc5nc(C)oc5c4)c[nH]c3n2)c(OC)c1', 'inactive'),
  ('C=C(F)C(=O)N1CCN(c2nc(OCC3CCCN3C)nc3c2CCN(c2cccc4cccc(Cl)c24)C3)CC1CC#N (stereo not given) + CN1CCN(c2cc(C(=O)Nc3cc4cc(-c5cnn(C)c5)ccc4cn3)ccn2)CC1', 'active'),
  ('C=CC(=O)N1CCN(c2nc(=O)n(-c3c(C)ccnc3C(C)C)c3nc(-c4c(O)cccc4F)c(F)cc23)C(C)C1 (stereo not given) + CN1CCN(c2cc(C(=O)Nc3cc4cc(-c5cnn(C)c5)ccc4cn3)ccn2)CC1', 'inactive'),
  ('Nc1ccn(C2OC(CO)C(O)C2(F)F)c(=O)n1 (stereo not given) + CN1CCN(c2cc(C(=O)Nc3cc4cc(-c5cnn(C)c5)ccc4cn3)ccn2)CC1', 'inactive'),
  ('O=C(c1cc(Cc2n[nH]c(=O)c3ccccc23)ccc1F)N1CCN(C(=O)C2CC2)CC1 + CN1CCN(c2cc(C(=O)Nc3cc4cc(-c5cnn(C)c5)ccc4cn3)ccn2)CC1', 'inactive'),
  ('Nc1ccccc1NC(=O)c1ccc(CNC(=O)OCc2cccnc2)cc1 + CN1CCN(c2cc(C(=O)Nc3cc4cc(-c5cnn(C)c5)ccc4cn3)ccn2)CC1', 'active'),
  ('O=c1[nH]cc(F)c(=O)[nH]1 + CN1CCN(c2cc(C(=O)Nc3cc4cc(-c5cnn(C)c5)ccc4cn3)ccn2)CC1', 'inactive'),
  ('CCCS(=O)(=O)Nc1ccc(F)c(C(=O)c2c[nH]c3ncc(-c4ccc(Cl)cc4)cc23)c1F + CNC(=O)c1ccc(Nc2nc(OC3CCCC3)c3c(-c4ccc5nc(C)oc5c4)c[nH]c3n2)c(OC)c1', 'inactive'),
  ('C#Cc1c(F)ccc2cc(O)cc(-c3ncc4c(N5CC6CCC(C5)N6)nc(OCC56CCCN5CC(F)C6)nc4c3F)c12 (stereo not given) + CNC(=O)c1ccc(Nc2nc(OC3CCCC3)c3c(-c4ccc5nc(C)oc5c4)c[nH]c3n2)c(OC)c1', 'inactive'),
  ('COc1ccc([C@@H](O)c2cc(-c3ncnc4cc(N5CCOCC5)ccc34)c(F)cc2Cl)nn1 + CN1CCN(c2cc(C(=O)Nc3cc4cc(-c5cnn(C)c5)ccc4cn3)ccn2)CC1', 'inactive'),
  ('CC(CO)NC(=O)c1cc(-c2ccc(Cl)cc2)nn(-c2cnn(C)c2)c1=O (stereo not given) + CN1CCN(c2cc(C(=O)Nc3cc4cc(-c5cnn(C)c5)ccc4cn3)ccn2)CC1', 'inactive'),
  ('O=C(c1cc(Cc2n[nH]c(=O)c3ccccc23)ccc1F)N1CCN(C(=O)C2CC2)CC1 + CNC(=O)c1ccc(Nc2nc(OC3CCCC3)c3c(-c4ccc5nc(C)oc5c4)c[nH]c3n2)c(OC)c1', 'inactive'),
  ('COC1C=CCC(C)C(C)S(=O)(=O)NC(=O)c2ccc3c(c2)N(CC2CCC21)CC1(CCCc2cc(Cl)ccc21)CO3 (stereo not given) + CNC(=O)c1ccc(Nc2nc(OC3CCCC3)c3c(-c4ccc5nc(C)oc5c4)c[nH]c3n2)c(OC)c1', 'inactive'),
  ('Nc1ccn(C2OC(CO)C(O)C2(F)F)c(=O)n1 (stereo not given) + CNC(=O)c1ccc(Nc2nc(OC3CCCC3)c3c(-c4ccc5nc(C)oc5c4)c[nH]c3n2)c(OC)c1', 'inactive'),
  ('COc1ccc([C@@H](O)c2cc(-c3ncnc4cc(N5CCOCC5)ccc34)c(F)cc2Cl)nn1 + CNC(=O)c1ccc(Nc2nc(OC3CCCC3)c3c(-c4ccc5nc(C)oc5c4)c[nH]c3n2)c(OC)c1', 'inactive'),
  ('CC1(C)CCC(CN2CCN(c3ccc(C(=O)NS(=O)(=O)c4ccc(NCC5CCOCC5)c([N+](=O)[O-])c4)c(Oc4cnc5[nH]ccc5c4)c3)CC2)=C(c2ccc(Cl)cc2)C1 + CNC(=O)c1ccc(Nc2nc(OC3CCCC3)c3c(-c4ccc5nc(C)oc5c4)c[nH]c3n2)c(OC)c1', 'inactive'),
  ('CC(=O)O[C@H]1C(=O)[C@@]2(C)[C@H]([C@H](OC(=O)c3ccccc3)[C@]3(O)C[C@H](OC(=O)[C@H](O)[C@@H](NC(=O)c4ccccc4)c4ccccc4)C(C)=C1C3(C)C)[C@]1(OC(C)=O)CO[C@@H]1C[C@@H]2O + CN1CCN(c2cc(C(=O)Nc3cc4cc(-c5cnn(C)c5)ccc4cn3)ccn2)CC1', 'inactive'),
  ('CC(CO)NC(=O)c1cc(-c2ccc(Cl)cc2)nn(-c2cnn(C)c2)c1=O (stereo not given) + CNC(=O)c1ccc(Nc2nc(OC3CCCC3)c3c(-c4ccc5nc(C)oc5c4)c[nH]c3n2)c(OC)c1', 'inactive'),
  ('CC(Nc1ccc2c(c1)OCCn1cc(N3C(=O)OCC3C(F)F)nc1-2)C(N)=O (stereo not given) + CNC(=O)c1ccc(Nc2nc(OC3CCCC3)c3c(-c4ccc5nc(C)oc5c4)c[nH]c3n2)c(OC)c1', 'inactive');

###

Tested on: 422866-222-R5-J1-PDC spheroid viability
experiment: Anticancer human tumor 422866-222-R5-J1-PDC cell line growth inhibition [CLK];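 further: spheroids exposed to agents for seven days before readout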
conditions: compound alone; run of 08/15/2023; spheroids with HUVEC and MSC
readout type: IC50

INSERT INTO results (compound_structure, test_system, measured_result) VALUES
  ('CNC(=O)c1ccc(Nc2nc(OC3CCCC3)c3c(-c4ccc5nc(C)oc5c4)c[nH]c3n2)c(OC)c1', '422866-222-R5-J1-PDC spheroid viability', '> 10 µM');

###

Entries and their viability, T/C
Test system: 422866-222-R5-J1-PDC spheroid viability
experiment: Anticancer human tumor 422866-222-R5-J1-PDC cell line growth inhibition [CLK];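 further: spheroids exposed to agents for seven days before readout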
conditions: second compound 0.316 µM; first compound 1 µM; stronger effect = lower value; spheroids with HUVEC and MSC
readout type: viability, T/C (%)

INSERT INTO assay_data (molecule, measured_result) VALUES
  ('CC1COCCN1c1cc(C2(S(C)(=N)=O)CC2)nc(-c2ccnc3[nH]ccc23)n1 (centres undefined) + CN1CCN(c2cc(C(=O)Nc3cc4cc(-c5cnn(C)c5)ccc4cn3)ccn2)CC1', 73.2),
  ('COC1C=CCC(C)C(C)S(=O)(=O)NC(=O)c2ccc3c(c2)N(CC2CCC21)CC1(CCCc2cc(Cl)ccc21)CO3 (centres undefined) + CNC(=O)c1ccc(Nc2nc(OC3CCCC3)c3c(-c4ccc5nc(C)oc5c4)c[nH]c3n2)c(OC)c1', 82.3),
  ('O=c1[nH]cc(F)c(=O)[nH]1 + CNC(=O)c1ccc(Nc2nc(OC3CCCC3)c3c(-c4ccc5nc(C)oc5c4)c[nH]c3n2)c(OC)c1', 61.7),
  ('COc1cccc2c1C(=O)c1c(O)c3c(c(O)c1C2=O)CC(O)(C(=O)CO)CC3OC1CC(N)C(O)C(C)O1 (centres undefined) + CNC(=O)c1ccc(Nc2nc(OC3CCCC3)c3c(-c4ccc5nc(C)oc5c4)c[nH]c3n2)c(OC)c1', 36.6);
